All figures here come from the RNAGym collection of RNA variant scans (doi:10.7554/elife.80360).

B1: CPEB3 Ribozyme (parent)
chain: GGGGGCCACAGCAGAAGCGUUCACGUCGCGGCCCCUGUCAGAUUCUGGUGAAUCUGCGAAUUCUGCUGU

- Variants of: B1
- Assay Overview: self-cleavage, relative activity (ratio to wild type); higher = more cleavage; co-transcriptional
Classification field: enter satisfied for self-cleavage values not below 0.8, not satisfied for values below it.

// known answers, use as guide
C9A U46G | satisfied
A8U G48U | satisfied

Lookup: Reported self-cleavage reaches at least 0.8 for G56A C66A ?
Found: not satisfied

Lookup: Reported self-cleavage reaches at least 0.8 for U46C G58C ?
Found: satisfied

Lookup: Reported self-cleavage reaches at least 0.8 for C18A U62C ?
Found: not satisfied

Lookup: Reported self-cleavage reaches at least 0.8 for C39U A40U ?
Found: not satisfied

Lookup: Reported self-cleavage reaches at least 0.8 for G5C G58C ?
Found: not satisfied

Lookup: Reported self-cleavage reaches at least 0.8 for C7G G37C ?
Found: not satisfied

Lookup: Reported self-cleavage reaches at least 0.8 for C7A C18G ?
Found: not satisfied

Lookup: Reported self-cleavage reaches at least 0.8 for C22A C45A ?
Found: not satisfied

Lookup: Reported self-cleavage reaches at least 0.8 for C32G U61C ?
Found: not satisfied

Lookup: Reported self-cleavage reaches at least 0.8 for C18U C45U ?
Found: satisfied

Lookup: Reported self-cleavage reaches at least 0.8 for G25U U43G ?
Found: not satisfied

Lookup: Reported self-cleavage reaches at least 0.8 for A13G ?
Found: satisfied

Lookup: Reported self-cleavage reaches at least 0.8 for A8U U55A ?
Found: satisfied

Lookup: Reported self-cleavage reaches at least 0.8 for A52G A59G ?
Found: satisfied
